# ASSAY SYSTEM: human GR (Homo sapiens, UniProt P04150)
# RUN DESCRIPTION: Trans-Activation Modulation of Glucocorticoid Receptor (GRAMMER), MMTV-LUC reporter, agonist mode
# Assay type: cell-based
# Set-up: endogenous in cells
# STATED CONDITIONS: A549, A549 cells; maximum activity; read-out: Transactivation A549 Cells GRAMMER Emax
Recorded measurements of Emax, one per entry

| COMPOUND | Emax / % |
| --- | --- |
| C[C@]12Cc3cnn(-c4ccc(F)cc4)c3C=C1CC[C@@H]2CN(CCO)S(=O)(=O)c1ccccc1Cl [Example 81] | 17.2 |
| C[C@]12Cc3cnn(-c4ccc(F)cc4)c3C=C1CC[C@@H]2CN(CCc1ccccc1O)S(=O)(=O)Cc1cccc(C(F)(F)F)c1 [Example 122] | 8.9 |
| CC(=O)Nc1ccc(S(=O)(=O)N(CCO)C[C@H]2CCC3=Cc4c(cnn4-c4ccc(F)cc4)C[C@@]32C)cc1 [Example 85] | 1.6 |

---

# ASSAY SYSTEM: human GR (Homo sapiens)
# Sequence (P04150 1-777): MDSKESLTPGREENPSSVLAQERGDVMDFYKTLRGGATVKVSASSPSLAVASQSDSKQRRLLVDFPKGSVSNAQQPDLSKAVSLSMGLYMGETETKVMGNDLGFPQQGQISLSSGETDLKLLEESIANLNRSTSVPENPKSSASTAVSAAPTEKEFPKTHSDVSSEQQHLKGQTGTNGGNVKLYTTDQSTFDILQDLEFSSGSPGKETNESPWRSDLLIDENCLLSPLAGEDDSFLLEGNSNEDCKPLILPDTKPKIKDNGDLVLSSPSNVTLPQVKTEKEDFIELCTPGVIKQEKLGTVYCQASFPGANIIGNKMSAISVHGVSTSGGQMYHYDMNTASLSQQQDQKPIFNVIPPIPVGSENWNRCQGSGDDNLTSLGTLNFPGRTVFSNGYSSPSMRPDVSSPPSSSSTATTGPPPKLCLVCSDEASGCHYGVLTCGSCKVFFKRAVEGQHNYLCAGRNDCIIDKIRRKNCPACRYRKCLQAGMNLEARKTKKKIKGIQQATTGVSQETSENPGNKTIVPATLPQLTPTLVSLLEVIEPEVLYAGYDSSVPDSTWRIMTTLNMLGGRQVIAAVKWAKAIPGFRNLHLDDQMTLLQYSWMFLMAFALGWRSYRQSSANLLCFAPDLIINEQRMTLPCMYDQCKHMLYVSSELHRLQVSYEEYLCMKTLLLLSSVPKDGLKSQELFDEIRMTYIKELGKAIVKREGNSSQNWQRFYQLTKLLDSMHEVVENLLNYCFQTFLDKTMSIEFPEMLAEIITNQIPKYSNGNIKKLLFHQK
# RUN DESCRIPTION: Trans-Activation Modulation of Glucocorticoid Receptor (GRAMMER), MMTV-LUC reporter, agonist mode
# Type: cell-based
# Set-up: endogenous in cells
# STATED CONDITIONS: A549 cells; inflection point; read-out: Transactivation A549 Cells GRAMMER IP
Recorded measurements of EC50, one per entry

| COMPOUND | EC50, nM |
| --- | --- |
| Cc1nn(C)c(Cl)c1S(=O)(=O)N(CC#N)C[C@H]1CCC2=Cc3c(cnn3-c3ccc(F)cc3)C[C@@]21C [Example 52] | 570 |
| C[C@]12Cc3cnn(-c4ccc(F)cc4)c3C=C1CC[C@@H]2CN(CCO)S(=O)(=O)c1ccccc1-c1ccccc1 [Example 84] | 442 |
| COC(=O)c1ccccc1S(=O)(=O)N(CCO)C[C@H]1CCC2=Cc3c(cnn3-c3ccc(F)cc3)C[C@@]21C [Example 73] | 364 |
